Listed here are compounds together with their documented IC50.
- SYSTEM TESTED: recombinant D. alaskensis Cut C/D lysate (Oleidesulfovibrio alaskensis, UniProt Q30W70)
- Sequence (Q30W70 whole entry): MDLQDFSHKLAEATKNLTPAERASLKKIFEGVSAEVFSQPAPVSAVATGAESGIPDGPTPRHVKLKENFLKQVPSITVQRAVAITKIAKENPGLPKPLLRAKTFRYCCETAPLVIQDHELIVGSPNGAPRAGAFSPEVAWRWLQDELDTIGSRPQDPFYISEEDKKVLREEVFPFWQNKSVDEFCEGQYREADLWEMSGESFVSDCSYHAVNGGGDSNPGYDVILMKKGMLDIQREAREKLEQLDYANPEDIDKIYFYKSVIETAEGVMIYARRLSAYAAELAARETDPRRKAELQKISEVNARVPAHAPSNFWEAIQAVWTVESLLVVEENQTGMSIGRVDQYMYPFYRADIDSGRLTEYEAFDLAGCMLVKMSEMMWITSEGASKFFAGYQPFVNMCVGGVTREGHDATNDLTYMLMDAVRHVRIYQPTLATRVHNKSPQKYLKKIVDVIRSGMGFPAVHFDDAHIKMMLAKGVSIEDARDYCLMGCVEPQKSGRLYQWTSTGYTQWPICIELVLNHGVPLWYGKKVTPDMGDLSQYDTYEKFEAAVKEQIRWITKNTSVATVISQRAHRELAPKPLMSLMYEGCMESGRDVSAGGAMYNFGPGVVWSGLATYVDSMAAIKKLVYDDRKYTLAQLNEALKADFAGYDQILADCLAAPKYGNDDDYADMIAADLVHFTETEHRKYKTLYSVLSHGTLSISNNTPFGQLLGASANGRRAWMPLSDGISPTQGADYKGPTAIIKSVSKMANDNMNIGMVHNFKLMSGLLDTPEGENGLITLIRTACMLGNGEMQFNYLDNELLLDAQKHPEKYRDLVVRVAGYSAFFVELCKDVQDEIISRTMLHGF
- EXPERIMENT DESCRIPTION: Inhibition of conversion of choline to TMA by recombinant D. alaskensis Cut C/D lysate (EXAMPLE 5)
Please give a number only; it is taken to be in nM.

Solved cases (2 shown):
> print(dat)
   structure.notation                             system.tested  recorded.number
1  C[N+](C)(CCO)C1CC1  recombinant D. alaskensis Cut C/D lysate (Oleidesulfovibrio alaskensis, UniProt Q30W70)               87
2   C[N+](C)(CF)C1CC1  recombinant D. alaskensis Cut C/D lysate (Oleidesulfovibrio alaskensis, UniProt Q30W70)            45000

// below: IC50 requested for another compound
Output IC50 of C#CC[N+](C)(C)C1CC1
110
